biological target: UBE2S C118 (Q16763) (Homo sapiens); experiment: Competitive isoTOP-ABPP, cell lysates; assay type: binding; details: 500 μm in-vitro ramos
Please use class 1 for isoTOP-ABPP ratio (reactivity profile), Q16763_C118 under 0.9 and class 0 for everything else, ties included.

Use these answered entries as a reference point.
{"Compound": "CC(Br)C(=O)Nc1cc(C(F)(F)F)cc(C(F)(F)F)c1 (stereo not drawn)", "System tested": "UBE2S C118 (Q16763) (Homo sapiens)", "Group": "class 0"}
{"Compound": "CCN(CC)c1ccc(S(N)(=O)=O)cc1NC(=O)CCl", "System tested": "UBE2S C118 (Q16763) (Homo sapiens)", "Group": "class 1"}
{"Compound": "COc1ccccc1OCCNC(=O)CCl", "System tested": "UBE2S C118 (Q16763) (Homo sapiens)", "Group": "class 1"}
{"Compound": "C=CC(=O)N(Cc1cccnc1)c1ccc(Oc2ccccc2)c(C(F)(F)F)c1", "System tested": "UBE2S C118 (Q16763) (Homo sapiens)", "Group": "class 0"}
{"Compound": "O=C(CCl)N1CCC(C(O)(c2ccccc2)c2ccccc2)CC1", "System tested": "UBE2S C118 (Q16763) (Homo sapiens)", "Group": "class 0"}

Pending compound:
Data request: Determine whether this compound shows isoTOP-ABPP ratio (reactivity profile), Q16763_C118 lower than 0.9 (ties excluded): N#C/C(=C\c1cc(C(F)(F)F)cc(C(F)(F)F)c1)C(N)=O
Data returned: class 0

====

target: cysteines in MDA-MB-231 and Ramos cells (Homo sapiens, UniProt O14929); experiment: Competitive isoTOP-ABPP in situ (fragment-treated cells); format: cell-based; settings: 200 μM, insitu, 231
Sequence (O14929 whole entry, the tested form may be a part): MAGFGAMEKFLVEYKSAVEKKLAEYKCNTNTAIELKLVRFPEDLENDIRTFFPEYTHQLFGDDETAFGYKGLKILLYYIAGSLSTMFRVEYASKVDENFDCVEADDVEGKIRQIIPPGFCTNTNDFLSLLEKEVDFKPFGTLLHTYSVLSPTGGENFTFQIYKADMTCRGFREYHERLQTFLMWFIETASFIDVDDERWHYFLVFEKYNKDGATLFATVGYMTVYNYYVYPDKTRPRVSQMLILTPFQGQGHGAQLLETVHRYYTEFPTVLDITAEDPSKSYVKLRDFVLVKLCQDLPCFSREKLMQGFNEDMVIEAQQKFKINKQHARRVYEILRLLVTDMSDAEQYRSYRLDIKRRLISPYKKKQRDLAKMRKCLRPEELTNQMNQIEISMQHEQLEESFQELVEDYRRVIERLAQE
Measurement type: isoTOP-ABPP ratio O14929_C101
Answers are plain numbers.

{"Compound": "C=CC(=O)Nc1cc(F)c(N2CCN(C(=O)OC(C)(C)C)CC2)c(F)c1", "isoTOP-ABPP ratio O14929_C101": 1.1}
{"Compound": "Cc1ccc(C=C(C#N)C(=O)NCCN2CCOCC2)cc1", "isoTOP-ABPP ratio O14929_C101": 0.6}
{"Compound": "CC1CCc2ccccc2N1C(=O)CCl (stereo not shown)", "isoTOP-ABPP ratio O14929_C101": 20.0}
{"Compound": "O=C(CCl)NC(=O)NC12CC3CC(CC(C3)C1)C2", "isoTOP-ABPP ratio O14929_C101": 20.0}
{"Compound": "O=C(CCl)N1CCN(S(=O)(=O)c2ccccc2F)CC1", "isoTOP-ABPP ratio O14929_C101": 20.0}
{"Compound": "O=C(CCl)NC12CC3CC(CC(C3)C1)C2", "isoTOP-ABPP ratio O14929_C101": 1.2}

Continue with the next compound.
Data request: Item O=C(CCl)NCCc1c[nH]c2ccccc12 : provide isoTOP-ABPP ratio O14929_C101
Data returned: 0.9

====

biological target: cysteines in MDA-MB-231 and Ramos cells (Homo sapiens); assay: Competitive isoTOP-ABPP in situ (fragment-treated cells); format: cell-based; conditions: 200 μM, insitu, ramos
Kindly state isoTOP-ABPP ratio Q9NQ88_C161 for each of the entries shown.

Study these solved cases before continuing.
{"Smi": "O=C(CCl)N1CCN(S(=O)(=O)c2ccccc2F)CC1", "Observed value": 2.1}
{"Smi": "O=C(CCl)NCCc1c[nH]c2ccccc12", "Observed value": 1.5}
{"Smi": "C=CC(=O)N(Cc1cccnc1)c1cc(C(F)(F)F)cc(C(F)(F)F)c1", "Observed value": 2.6}

Continue with the next compound.
Data request: Item O=C(CCl)N1CCN(CC(=O)N2CCOCC2)CC1 : provide isoTOP-ABPP ratio Q9NQ88_C161
Data returned: 1.3

====

Kindly state isoTOP-ABPP ratio P46013_C903 for each of the entries shown.
target: cysteines in MDA-MB-231 and Ramos cells (Homo sapiens, UniProt P46013); experiment: Competitive isoTOP-ABPP in situ (fragment-treated cells); format: cell-based; conditions: 200 μM, insitu, 231
Sequence (P46013 whole entry, the tested form may be a part): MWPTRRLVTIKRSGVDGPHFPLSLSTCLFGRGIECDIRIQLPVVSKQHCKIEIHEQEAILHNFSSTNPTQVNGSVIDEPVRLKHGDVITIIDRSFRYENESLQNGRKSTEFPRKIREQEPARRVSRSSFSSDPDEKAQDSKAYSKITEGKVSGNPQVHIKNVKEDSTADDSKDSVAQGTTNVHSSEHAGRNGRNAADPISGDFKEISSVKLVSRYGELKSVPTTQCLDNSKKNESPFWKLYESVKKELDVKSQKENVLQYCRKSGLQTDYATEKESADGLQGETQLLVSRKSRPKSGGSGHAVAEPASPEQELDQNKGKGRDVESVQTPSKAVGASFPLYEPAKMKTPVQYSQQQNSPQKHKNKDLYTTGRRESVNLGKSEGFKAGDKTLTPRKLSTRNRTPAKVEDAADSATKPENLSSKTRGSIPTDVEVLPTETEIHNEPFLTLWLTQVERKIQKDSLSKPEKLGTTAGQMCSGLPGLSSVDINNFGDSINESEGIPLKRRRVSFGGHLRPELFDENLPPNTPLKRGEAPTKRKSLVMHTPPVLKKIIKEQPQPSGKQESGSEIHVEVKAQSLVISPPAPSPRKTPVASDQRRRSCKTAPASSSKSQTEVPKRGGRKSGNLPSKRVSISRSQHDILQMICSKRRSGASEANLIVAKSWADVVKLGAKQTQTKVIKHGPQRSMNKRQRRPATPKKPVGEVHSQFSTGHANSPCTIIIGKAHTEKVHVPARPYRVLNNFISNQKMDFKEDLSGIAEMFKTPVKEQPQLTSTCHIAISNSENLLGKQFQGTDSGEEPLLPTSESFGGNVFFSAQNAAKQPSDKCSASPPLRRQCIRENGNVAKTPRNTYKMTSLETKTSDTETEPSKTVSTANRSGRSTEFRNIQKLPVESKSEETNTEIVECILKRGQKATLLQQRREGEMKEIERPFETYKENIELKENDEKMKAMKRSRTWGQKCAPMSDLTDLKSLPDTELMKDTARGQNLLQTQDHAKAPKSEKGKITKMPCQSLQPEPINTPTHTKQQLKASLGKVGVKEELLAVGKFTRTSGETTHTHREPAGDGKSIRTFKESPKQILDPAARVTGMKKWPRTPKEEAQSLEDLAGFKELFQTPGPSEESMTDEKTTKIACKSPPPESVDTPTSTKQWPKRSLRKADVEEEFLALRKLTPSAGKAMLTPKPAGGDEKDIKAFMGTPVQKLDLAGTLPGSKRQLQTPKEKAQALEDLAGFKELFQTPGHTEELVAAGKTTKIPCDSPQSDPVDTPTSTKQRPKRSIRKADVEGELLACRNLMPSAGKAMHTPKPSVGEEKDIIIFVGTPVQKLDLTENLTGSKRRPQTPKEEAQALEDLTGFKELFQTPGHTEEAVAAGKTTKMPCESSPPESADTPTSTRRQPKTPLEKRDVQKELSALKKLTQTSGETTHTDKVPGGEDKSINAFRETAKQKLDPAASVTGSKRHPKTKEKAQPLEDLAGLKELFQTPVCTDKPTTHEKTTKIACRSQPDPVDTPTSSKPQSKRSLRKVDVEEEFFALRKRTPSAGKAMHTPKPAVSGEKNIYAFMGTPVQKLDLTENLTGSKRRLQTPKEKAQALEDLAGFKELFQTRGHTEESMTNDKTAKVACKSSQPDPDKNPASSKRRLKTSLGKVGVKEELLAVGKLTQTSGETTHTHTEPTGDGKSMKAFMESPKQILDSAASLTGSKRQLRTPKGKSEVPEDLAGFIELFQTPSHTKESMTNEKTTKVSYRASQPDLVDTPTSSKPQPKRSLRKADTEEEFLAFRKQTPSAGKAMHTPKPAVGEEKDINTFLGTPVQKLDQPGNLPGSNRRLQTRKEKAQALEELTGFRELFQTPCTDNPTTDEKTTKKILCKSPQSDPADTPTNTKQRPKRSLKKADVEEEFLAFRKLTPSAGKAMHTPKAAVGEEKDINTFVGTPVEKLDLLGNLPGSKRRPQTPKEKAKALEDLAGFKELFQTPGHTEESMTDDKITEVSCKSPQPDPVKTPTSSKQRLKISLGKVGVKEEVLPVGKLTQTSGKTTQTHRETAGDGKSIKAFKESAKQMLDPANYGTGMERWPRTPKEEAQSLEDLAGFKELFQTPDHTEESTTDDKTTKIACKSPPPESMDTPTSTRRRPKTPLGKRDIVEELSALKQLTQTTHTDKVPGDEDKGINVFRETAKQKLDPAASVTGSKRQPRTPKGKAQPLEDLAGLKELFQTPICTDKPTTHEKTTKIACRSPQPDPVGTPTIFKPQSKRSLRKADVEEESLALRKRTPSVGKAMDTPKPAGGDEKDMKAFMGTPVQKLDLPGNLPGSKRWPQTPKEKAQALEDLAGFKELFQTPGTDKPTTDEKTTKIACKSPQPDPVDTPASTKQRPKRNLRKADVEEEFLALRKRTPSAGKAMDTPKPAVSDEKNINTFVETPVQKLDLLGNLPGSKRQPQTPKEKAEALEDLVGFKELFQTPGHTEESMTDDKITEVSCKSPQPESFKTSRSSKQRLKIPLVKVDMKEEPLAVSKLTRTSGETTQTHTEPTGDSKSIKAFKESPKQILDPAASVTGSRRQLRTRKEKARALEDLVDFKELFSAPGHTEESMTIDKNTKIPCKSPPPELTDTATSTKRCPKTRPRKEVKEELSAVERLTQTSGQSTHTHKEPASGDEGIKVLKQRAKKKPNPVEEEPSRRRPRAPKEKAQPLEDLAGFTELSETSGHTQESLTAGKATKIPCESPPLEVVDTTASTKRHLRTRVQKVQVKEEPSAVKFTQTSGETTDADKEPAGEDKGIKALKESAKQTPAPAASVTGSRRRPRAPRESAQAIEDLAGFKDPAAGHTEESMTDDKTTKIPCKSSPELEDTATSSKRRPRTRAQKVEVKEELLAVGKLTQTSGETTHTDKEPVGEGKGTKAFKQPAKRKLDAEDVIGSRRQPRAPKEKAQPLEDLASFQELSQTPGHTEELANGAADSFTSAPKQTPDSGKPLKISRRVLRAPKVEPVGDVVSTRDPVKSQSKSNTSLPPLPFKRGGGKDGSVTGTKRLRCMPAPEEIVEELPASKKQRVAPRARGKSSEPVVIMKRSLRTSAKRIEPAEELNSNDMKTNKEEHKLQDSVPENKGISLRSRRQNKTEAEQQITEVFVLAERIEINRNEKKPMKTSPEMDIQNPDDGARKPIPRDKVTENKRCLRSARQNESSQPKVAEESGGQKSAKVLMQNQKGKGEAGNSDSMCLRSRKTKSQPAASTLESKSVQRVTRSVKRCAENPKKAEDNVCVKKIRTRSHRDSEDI
One number for each entry.

Study these solved cases before continuing.
{"Compound": "CC1CCc2ccccc2N1C(=O)CCl (stereo not shown)", "Measurement type": "isoTOP-ABPP ratio P46013_C903", "Observed value": 20.0}
{"Compound": "Cc1ccc(C=C(C#N)C(=O)NCCN2CCOCC2)cc1", "Measurement type": "isoTOP-ABPP ratio P46013_C903", "Observed value": 1.0}
{"Compound": "C=CC(=O)Nc1cc(F)c(N2CCN(C(=O)OC(C)(C)C)CC2)c(F)c1", "Measurement type": "isoTOP-ABPP ratio P46013_C903", "Observed value": 1.1}

Continue with the next compound.
Data request: Item O=C(CCl)Nc1cccc2ncccc12 : provide isoTOP-ABPP ratio P46013_C903
Data returned: 1.1

====

target: SAMHD1 C522 (Q9Y3Z3) (Homo sapiens, UniProt Q9Y3Z3); test: Competitive isoTOP-ABPP, cell lysates; type: binding; conditions: 500 μm in-vitro ramos
Sequence (Q9Y3Z3 whole entry): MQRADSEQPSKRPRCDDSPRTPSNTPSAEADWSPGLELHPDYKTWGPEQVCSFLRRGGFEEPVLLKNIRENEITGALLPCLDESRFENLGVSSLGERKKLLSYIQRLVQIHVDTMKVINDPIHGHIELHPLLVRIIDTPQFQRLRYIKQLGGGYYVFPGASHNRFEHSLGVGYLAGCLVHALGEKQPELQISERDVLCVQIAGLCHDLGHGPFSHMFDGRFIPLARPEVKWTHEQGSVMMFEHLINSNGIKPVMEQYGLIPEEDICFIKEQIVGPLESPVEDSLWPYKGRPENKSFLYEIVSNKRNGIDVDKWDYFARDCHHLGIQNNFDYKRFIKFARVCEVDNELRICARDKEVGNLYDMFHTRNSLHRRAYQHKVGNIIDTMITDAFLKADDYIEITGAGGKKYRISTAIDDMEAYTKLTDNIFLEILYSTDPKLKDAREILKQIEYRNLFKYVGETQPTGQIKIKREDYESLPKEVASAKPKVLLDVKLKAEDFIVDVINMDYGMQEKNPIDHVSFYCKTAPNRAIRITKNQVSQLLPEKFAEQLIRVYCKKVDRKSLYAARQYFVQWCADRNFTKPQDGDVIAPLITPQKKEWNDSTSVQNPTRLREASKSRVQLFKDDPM
Measurement type: isoTOP-ABPP ratio (reactivity profile), Q9Y3Z3_C522

Each molecule below has a recorded value; state its isoTOP-ABPP ratio (reactivity profile), Q9Y3Z3_C522.
1. CC(C)CCOCCNC(=O)CCl
2. O=C(/C=C/c1ccccc1)Nc1cc(C(F)(F)F)cc(C(F)(F)F)c1
3. O=C(CCl)N1CCC(C(O)(c2ccccc2)c2ccccc2)CC1
4. CC(Br)C(=O)Nc1cc(C(F)(F)F)cc(C(F)(F)F)c1 (centres unmarked)
5. CCN(CC)c1ccc(S(N)(=O)=O)cc1NC(=O)CCl
6. C=CC(=O)N(Cc1cccnc1)c1ccc(Oc2ccccc2)c(C(F)(F)F)c1

Data returned:
1. 0.9
2. 0.9
3. 1.3
4. 1.1
5. 0.7
6. 1.6

Each molecule below has a recorded value; state its isoTOP-ABPP ratio (reactivity profile), Q9Y3Z3_C522.
1. O=C(CCl)NC12CC3CC(CC(C3)C1)C2
2. O=C(CCl)N1CCOCC1

Data returned:
[1.4, 0.8]

====

target: PDIA6 C190 (Q15084) (Homo sapiens); assay: Competitive isoTOP-ABPP, cell lysates; assay type: binding; settings: 500 μm, in-vitro_ramos_231
Measurement type: isoTOP-ABPP reactivity ratio, Q15084_C190
Numbers only.

Study these solved cases before continuing.
{"Molecule": "C=CC(=O)N(Cc1cccnc1)c1cc(C(F)(F)F)cc(C(F)(F)F)c1 [compound 31]", "Observed value": 1.3}
{"Molecule": "O=C(CCl)Nc1ccccc1C1CCCCCC1 [compound 35]", "Observed value": 0.9}
{"Molecule": "CC(C)(C)c1cc(NC(=O)CCl)on1 [compound 32]", "Observed value": 20.0}
{"Molecule": "C=CC(=O)Nc1cc(C)c(Br)cc1C [compound 40]", "Observed value": 0.9}
{"Molecule": "COC(=O)C1Cc2ccccc2CN1C(=O)CCl (centres unmarked) [compound 39]", "Observed value": 7.0}
{"Molecule": "C=CC(=O)Nc1cc(F)c(N2CCN(C(=O)OC(C)(C)C)CC2)c(F)c1 [compound 38]", "Observed value": 1.1}
{"Molecule": "O=C(CCl)N(Cc1ccc(F)cc1)C12CC3CC(CC(C3)C1)C2 [compound 34]", "Observed value": 0.9}

Data request: Give reported isoTOP-ABPP reactivity ratio, Q15084_C190 for Cc1ccc(C=C(C#N)C(=O)NCCN2CCOCC2)cc1 [compound 41] (PDIA6 C190 (Q15084) (Homo sapiens))
Data returned: 1.0

====

Kindly state isoTOP-ABPP ratio (reactivity profile), Q9HB90_C377 for each of the entries shown.
target: RRAGC C377 (Q9HB90) (Homo sapiens, UniProt Q9HB90); assay: Competitive isoTOP-ABPP, cell lysates; format: binding; settings: 500 μm in-vitro ramos_231
Sequence (Q9HB90 2-399 limits assumed): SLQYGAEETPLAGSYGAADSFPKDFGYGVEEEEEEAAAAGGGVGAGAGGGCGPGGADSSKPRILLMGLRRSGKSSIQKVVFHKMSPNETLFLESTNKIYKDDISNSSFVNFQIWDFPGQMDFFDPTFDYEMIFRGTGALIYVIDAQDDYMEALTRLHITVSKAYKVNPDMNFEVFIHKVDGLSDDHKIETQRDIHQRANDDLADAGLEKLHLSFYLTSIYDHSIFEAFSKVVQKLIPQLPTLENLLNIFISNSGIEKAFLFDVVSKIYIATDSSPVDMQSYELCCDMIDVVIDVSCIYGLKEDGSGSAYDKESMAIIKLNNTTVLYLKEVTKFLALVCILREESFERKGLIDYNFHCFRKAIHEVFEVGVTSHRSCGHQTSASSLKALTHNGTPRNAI
Sequence (Q7L523 whole entry partner): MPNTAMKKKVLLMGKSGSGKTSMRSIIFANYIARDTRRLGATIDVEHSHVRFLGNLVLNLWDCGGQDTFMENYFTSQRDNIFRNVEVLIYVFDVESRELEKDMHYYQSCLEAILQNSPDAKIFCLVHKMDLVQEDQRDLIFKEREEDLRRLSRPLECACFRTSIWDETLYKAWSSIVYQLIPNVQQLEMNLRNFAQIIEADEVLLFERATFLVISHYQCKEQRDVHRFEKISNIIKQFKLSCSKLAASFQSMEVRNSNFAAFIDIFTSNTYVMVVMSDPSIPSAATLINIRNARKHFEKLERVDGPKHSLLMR
Give bare numbers.

Study these solved cases before continuing.
{"Compound": "O=C(CCl)NC12CC3CC(CC(C3)C1)C2", "Observed value": 1.4}
{"Compound": "CC(C)CCOCCNC(=O)CCl", "Observed value": 1.0}
{"Compound": "COc1ccccc1OCCNC(=O)CCl", "Observed value": 1.3}
{"Compound": "CC(Cl)C(=O)Nc1cc(C(F)(F)F)cc(C(F)(F)F)c1 (stereo not shown)", "Observed value": 1.0}
{"Compound": "O=C(CCl)N1CCOCC1", "Observed value": 1.7}
{"Compound": "O=C(CCl)N1CCN(CC(=O)N2CCOCC2)CC1", "Observed value": 1.3}

Continue with the next compound.
Data request: Item N#C/C(=C\c1cc(C(F)(F)F)cc(C(F)(F)F)c1)C(N)=O : provide isoTOP-ABPP ratio (reactivity profile), Q9HB90_C377
Data returned: 1.5

====

Kindly state isoTOP-ABPP reactivity profile ratio, P00813_C75 for each of the entries shown.
Target: ADA C75 (P00813) (Homo sapiens)
Sequence (P00813 1-363): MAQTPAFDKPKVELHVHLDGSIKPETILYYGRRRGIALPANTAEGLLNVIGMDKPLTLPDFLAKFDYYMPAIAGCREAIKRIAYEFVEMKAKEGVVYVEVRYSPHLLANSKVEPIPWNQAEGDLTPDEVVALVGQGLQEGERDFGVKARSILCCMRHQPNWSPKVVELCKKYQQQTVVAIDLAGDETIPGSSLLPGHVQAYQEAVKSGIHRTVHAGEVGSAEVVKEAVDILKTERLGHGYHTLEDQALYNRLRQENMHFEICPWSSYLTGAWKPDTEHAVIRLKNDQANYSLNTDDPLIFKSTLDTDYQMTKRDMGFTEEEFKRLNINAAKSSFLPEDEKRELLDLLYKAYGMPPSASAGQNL
Assay: Competitive isoTOP-ABPP, cell lysates
Format: binding
Details: 500 μm, in-vitro_ramos
Numbers only.

Study these solved cases before continuing.
{"Smi": "O=C(CCl)Nc1ccc(-c2ccccc2)cc1", "Observed value": 1.2}
{"Smi": "N#CC(=Cc1ccc(-c2ccccc2Cl)o1)C(N)=O", "Observed value": 0.8}

Each molecule below has a recorded value; state its isoTOP-ABPP reactivity profile ratio, P00813_C75.
1. O=C(CCl)Nc1cccc2ncccc12
2. COc1cc(NC(=O)CCl)cc(OC)c1

Data returned:
[1.0, 1.2]
